tested on: Ba/F3 cells expressing EGFR mutations; experiment: Cell proliferation assay, Ba/F3 cells expressing EGFR mutations (CellTiter-Glo, 72 hours); assay type: cell-based; conditions: BaF3 cells, EGFR DEL19-T790-C797S, CellTiter-Glo, read-out: DEL19-T790-C797S/BaF3 GI50
# if measured GI50 < 300 nM: Fulfilled  # else: Not fulfilled

I wonder whether CN(C)[C@@H]1CCN(c2ccc3nc4n(c3c2)C23CCC(CN(CCOc5c(cnn5C)-c5cc(cn(C)c5=O)C(=O)N4)C2)C3)C1 (single isomer, unassigned) [Example A66C] has GI50 below 300 nM. Can you tell?
Not fulfilled

API: query returns whether the molecule falls strictly under 300 nM in GI50. Query: CN1CCC2(CCN(c3ccc4nc5n(c4c3)C34CCC(CN(CCOc6c(cnn6C)-c6cc(cn(C)c6=O)C(=O)N5)C3)C4)C2)C1 (single isomer, unassigned) [Example A81A]
Fulfilled

State whether 300 nM exceeds GI50 recorded for CCC1CCCOc2c(cnn2C)-c2cc(cn(C)c2=O)C(=O)Nc2nc3ccc(N4CCN(C)CC4)cc3n2C1 (single isomer, unassigned) [Example A16A] .
Fulfilled

I'd appreciate it if you could check whether Cn1ncc2c1OCCN1CC3CCC(C3)(C1)n1c(nc3ccc(N4CCC(N5CCOCC5)C4)cc31)NC(=O)c1cc-2c(=O)n(C)c1 (single isomer, unassigned) [Example A104A] has GI50 smaller than 300 nM.
Not fulfilled

Say whether its GI50 is strictly beneath 300 nM. Entry: CN1CC2CN(c3ccc4nc5n(c4c3)C34CCC(CN(CCOc6c(cnn6C)-c6cc(cn(C)c6=O)C(=O)N5)C3)C4)CC2C1 (single isomer, unassigned) [Example A68B]
Fulfilled

Below 300 nM on GI50? Entry Cn1ncc2c1OCCN1CC3CCC(C3)(C1)n1c(nc3ccc(N4CCN(C5CC5)CC4)cc31)NC(=O)c1cc-2c(=O)n(C)c1 (single isomer, unassigned) [Example A83A]
Not fulfilled

Quick check: GI50 of CN1CCN(C2CCN(c3ccc4nc5n(c4c3)C34CCC(CN(CCOc6c(cnn6C)-c6cc(cn(C)c6=O)C(=O)N5)C3)C4)CC2)CC1 (single isomer, unassigned) [Example A106B] under 300 nM?
Fulfilled

Please determine if CN1CCC2(C1)CN(c1ccc3nc4n(c3c1)C13CCC(CN(CCOc5c(cnn5C)-c5cc(cn(C)c5=O)C(=O)N4)C1)C3)C2 (single isomer, unassigned) [Example A78A] is below 300 nM in terms of GI50.
Fulfilled

GI50 under 300 nM? Item: CN1CCN(C2CCN(c3ccc4nc5n(c4c3)C34CCC(CN(CCOc6c(cnn6C)-c6cc(cn(C)c6=O)C(=O)N5)C3)C4)C2)CC1 (single isomer, unassigned) [Example A80A2]
Fulfilled

Determine whether this molecule shows GI50 lower than 300 nM (ties excluded): CN1CCN(C2CN(c3ccc4nc5n(c4c3)C34CCC(CN(CCOc6c(cnn6C)-c6cc(cn(C)c6=O)C(=O)N5)C3)C4)C2)CC1 (single isomer, unassigned) [Example A70B]
Fulfilled

* * *

biological target: EGFR L858R (Homo sapiens, UniProt P00533, L858R); construct: purchased Carna Bio; test: Inhibition of EGFR L858R biochemical enzymatic activity (HTRF); conditions: 1 mM ATP, 1 h, room temperature, read-out: IC50 (nM) @L858R
Sequence (P00533 25-1210 L858R): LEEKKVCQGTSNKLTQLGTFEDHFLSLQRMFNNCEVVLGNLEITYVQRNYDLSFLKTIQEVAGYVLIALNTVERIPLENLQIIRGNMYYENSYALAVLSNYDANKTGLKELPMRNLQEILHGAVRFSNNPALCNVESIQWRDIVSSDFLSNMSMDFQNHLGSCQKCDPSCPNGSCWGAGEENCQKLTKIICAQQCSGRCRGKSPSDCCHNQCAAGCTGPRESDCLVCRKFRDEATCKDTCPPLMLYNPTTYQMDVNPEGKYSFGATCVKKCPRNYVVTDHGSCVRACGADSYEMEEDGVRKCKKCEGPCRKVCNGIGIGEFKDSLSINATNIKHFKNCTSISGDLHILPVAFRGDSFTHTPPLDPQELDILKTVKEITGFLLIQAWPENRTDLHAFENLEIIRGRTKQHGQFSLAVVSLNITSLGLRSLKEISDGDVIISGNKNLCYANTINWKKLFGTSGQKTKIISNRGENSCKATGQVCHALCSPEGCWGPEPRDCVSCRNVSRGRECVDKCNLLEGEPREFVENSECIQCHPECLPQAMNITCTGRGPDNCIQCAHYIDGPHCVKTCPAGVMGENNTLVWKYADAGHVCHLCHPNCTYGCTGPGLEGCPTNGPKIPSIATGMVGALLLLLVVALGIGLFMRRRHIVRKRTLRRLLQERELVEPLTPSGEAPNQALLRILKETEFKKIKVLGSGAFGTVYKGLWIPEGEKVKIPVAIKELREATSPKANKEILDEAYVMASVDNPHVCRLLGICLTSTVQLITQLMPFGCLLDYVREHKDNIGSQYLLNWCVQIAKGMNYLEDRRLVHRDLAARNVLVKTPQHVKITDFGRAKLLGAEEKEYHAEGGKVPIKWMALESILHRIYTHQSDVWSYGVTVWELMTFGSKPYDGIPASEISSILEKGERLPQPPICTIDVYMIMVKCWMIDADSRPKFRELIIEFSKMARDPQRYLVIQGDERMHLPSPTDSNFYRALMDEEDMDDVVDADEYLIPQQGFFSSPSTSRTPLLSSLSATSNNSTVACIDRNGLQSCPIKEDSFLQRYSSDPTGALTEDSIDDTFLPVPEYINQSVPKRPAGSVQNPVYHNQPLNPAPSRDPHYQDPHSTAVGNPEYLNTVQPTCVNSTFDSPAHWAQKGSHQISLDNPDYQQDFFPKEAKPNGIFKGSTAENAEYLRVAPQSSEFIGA
Please provide measured IC50 for the entries that follow.
Value expressed in nM; do not type the unit.

Recorded IC50 (compound CN(C)CCC1CN(c2ccc3nc4n(c3c2)C23CCC(CN(CCOc5c(cnn5C)-c5cc(cn(C)c5=O)C(=O)N4)C2)C3)C1 (single isomer, unassigned) [Example A95B] ): 7

Recorded result, CN1CCC2(C1)CN(c1ccc3nc4n(c3c1)C13CCC(CN(CCOc5c(cnn5C)-c5cc(cn(C)c5=O)C(=O)N4)C1)C3)C2 (single isomer, unassigned) [Example A78A] , IC50: 2040

Record Cn1ncc2c1OCCN(CC(F)(F)F)CCn1c(nc3ccccc31)NC(=O)c1cc-2c(=O)n(C)c1 . Reported IC50: 197

Entry CN1CCC12CCN(c1ccc3nc4n(c3c1)C13CCC(CC1)CN(CCOc1c(cnn1C)-c1cc(cn(C)c1=O)C(=O)N4)C3)CC2 — recorded IC50 = 48

The compound listed as CN(C)CCN(C)c1ccc2nc3n(c2c1)C12CCC(CN(CCOc4c(cnn4C)-c4cc(cn(C)c4=O)C(=O)N3)C1)C2 (single isomer, unassigned) [Example A85A] shows IC50 equal to 1590

Form field IC50, entry C[C@@H]1CCCOc2c(cnn2C)-c2cc(cn(C)c2=O)C(=O)Nc2nc3ccc(N4CCC(N5CCOCC5)C4)cc3n2C1 (some centres unmarked) : 174

Noted for CN1CCC2(CC1)CN(c1ccc3nc4n(c3c1)C13CCC(CN(CCOc5c(cnn5C)-c5cc(cn(C)c5=O)C(=O)N4)C1)C3)C2 (single isomer, unassigned) [Example A77B] : its IC50 reads 3.5

IC50 in this record for C[C@@H]1CCCOc2c(cnn2C)-c2cc(cn(C)c2=O)C(=O)Nc2nc3ccc(N4CC(F)(CN(C)C)C4)cc3n2C1 : 26

Looking up Cn1ncc2c1OCCN1CC3CCC(C3)(C1)n1c(nc3ccc(N4CCC(N5CC(F)C5)C4)cc31)NC(=O)c1cc-2c(=O)n(C)c1 (single isomer, unassigned) [Example A94B1] , I found its IC50 recorded as 27

Field IC50 (entry CCN1CCN(c2ccc3nc4n(c3c2)C23CCC(CN(CCOc5c(cnn5C)-c5cc(cn(C)c5=O)C(=O)N4)C2)C3)CC1 (single isomer, unassigned) [Example A107A] ) reads 770

Memo: C[C@@H]1CCCOc2c(cnn2C)-c2cc(cn(C)c2=O)C(=O)Nc2nc3ccc(N4CCN(C(=O)OC(C)(C)C)CC4)cc3n2C1 , reported IC50: 3040

IC50 in this record for CCn1ncc2c1OCCC[C@@H](C)Cn1c(nc3ccc(N4CCN(C)CC4)cc31)NC(=O)c1cc-2c(=O)n(C)c1 : 37

get_value(item= C[C@@H]1CCCOc2c(cnn2C)-c2cc(cn(C)c2=O)C(=O)Nc2nc3ccc(Br)cc3n2C1 , readout=IC50) returns 2460

The compound CN(C)CCC1CN(c2ccc3nc4n(c3c2)C23CCC(CN(CCOc5c(cnn5C)-c5cc(cn(C)c5=O)C(=O)N4)C2)C3)C1 (single isomer, unassigned) [Example A95A] showed IC50 equal to 4640

The compound identified as Cc1cc2cc(n1)-c1cnn(C)c1OCCN1CC3CCC(CC3)(C1)n1c(nc3ccc(N4CCN(C)CC4)cc31)NC2=O registered its IC50 at 24

The measured IC50 associated with CN(C)[C@H]1CCN(c2ccc3nc4n(c3c2)C23CCC(CN(CCOc5c(cnn5C)-c5cc(cn(C)c5=O)C(=O)N4)C2)C3)C1 (single isomer, unassigned) [Example A66B] reads 7.9

Recorded IC50 (compound C[C@@H]1CCCOc2c(cnn2C)-c2cc(cn(C)c2=O)C(=O)Nc2nc3ccc(N4CC5(CN(C)CCO5)C4)cc3n2C1 ): 46

Kindly note the recorded IC50 for CN1CCN(c2ccc3nc4n(c3c2)CCN(CC(F)(F)F)CCOc2c(cnn2C2CC2)-c2cc(cn(C)c2=O)C(=O)N4)CC1 , which is 5

Value of IC50 reported for the compound CN1CC2(C1)CN(c1ccc3nc4n(c3c1)C13CCC(CN(CCOc5c(cnn5C)-c5cc(cn(C)c5=O)C(=O)N4)C1)C3)C2 (single isomer, unassigned) [Example A92A] is 1150

IC50 measured on C[C@@H]1CCCOc2ccc(F)cc2-c2cc(cn(C)c2=O)C(=O)Nc2nc3ccc(N4CCN(C)CC4)cc3n2C1 = 6.2

* * *

biological target: EGFR Exon19Del (Homo sapiens, UniProt P00533, DEL746-750); construct: purchased Carna Bio; test: Inhibition of EGFR Exon19Del biochemical enzymatic activity (HTRF); settings: EGFR Del19, 1 mM ATP, 1 h, room temperature, read-out: IC50 @Del19
Sequence (P00533 with tags, fused parts or gaps DEL746-750 limits assumed): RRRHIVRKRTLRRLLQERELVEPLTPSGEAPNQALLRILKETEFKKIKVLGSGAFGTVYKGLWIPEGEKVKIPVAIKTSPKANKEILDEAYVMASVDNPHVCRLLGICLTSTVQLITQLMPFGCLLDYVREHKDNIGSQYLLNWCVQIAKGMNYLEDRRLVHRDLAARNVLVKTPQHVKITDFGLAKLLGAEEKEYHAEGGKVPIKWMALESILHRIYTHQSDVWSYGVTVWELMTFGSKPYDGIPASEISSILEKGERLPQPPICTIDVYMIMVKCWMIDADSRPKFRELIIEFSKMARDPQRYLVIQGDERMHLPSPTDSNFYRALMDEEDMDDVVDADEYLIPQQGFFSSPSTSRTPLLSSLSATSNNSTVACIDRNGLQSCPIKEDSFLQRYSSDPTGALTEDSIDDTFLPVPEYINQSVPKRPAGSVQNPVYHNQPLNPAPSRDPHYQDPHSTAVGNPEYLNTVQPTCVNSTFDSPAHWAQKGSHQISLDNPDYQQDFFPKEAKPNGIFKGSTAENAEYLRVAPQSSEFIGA
pIC50: −log10 of the molar value.
We use 7 as the dividing line for pIC50: on or above the line is label 1, below is label 0.

Check this molecule for pIC50 at or above 7: CCN1CCN(c2ccc3nc4n(c3c2)C23CCC(CN(CCOc5c(cnn5C)-c5cc(cn(C)c5=O)C(=O)N4)C2)C3)CC1 (single isomer, unassigned) [Example A107A]
label 0

Has C[C@@H]1CCCOc2c(cnn2C)-c2cc(cn(C)c2=O)C(=O)Nc2nc3ccc(N4CCNCC4)cc3n2C1 [Example A55] a recorded pIC50 greater than or equal to 7?
label 1

Evaluate CCN1CCOc2c(cnn2C)-c2cc(cn(C)c2=O)C(=O)Nc2nc3ccccc3n2C(C)C1 (stereo not shown) [Example A6] : pIC50 at minimum 7?
label 0

Threshold query (pIC50 >= 7) on Cn1ncc2c1OCCN1CCCCC(C1)n1c(nc3ccccc31)NC(=O)c1cc-2c(=O)n(C)c1 (stereo not shown) [Example A8]
label 0

Please check the record CN1C2CC1CN(c1ccc3nc4n(c3c1)C13CCC(CN(CCOc5c(cnn5C)-c5cc(cn(C)c5=O)C(=O)N4)C1)C3)C2 (single isomer, unassigned) [Example A98B] and state if its pIC50 is at or above 7.
label 1
